Parameter: pIC50. Scope: all listed entries.
Target: human TASK-1 (Homo sapiens (Human))
Test: Inhibition of recombinant TASK-1 in stably transfected CHO cells (voltage-sensitive dye, 40 mM KCl depolarization)
Type: cell-based
Settings: 40 mM potassium chloride
Would you please state pIC50, meaning minus log10 of the concentration in mol/L, as a bare number?

Below are worked cases with known answers.
COc1cccc(C(=O)N2CC3CN(Cc4c(-c5ccc(Br)cc5)nc5ccccn45)CC3C2)n1 (stereo not shown): 6.48
O=C(Nc1ccccc1F)N1CC2CN(Cc3c(-c4ccc(Br)cc4)nc4ccccn34)CC2C1 (stereo not shown): 6.24
Cc1ccccc1C(=O)N1CC2CN(Cc3c(-c4ccc(Br)cc4)nc4ccccn34)CC2C1 (stereo not shown): 6.15
CC(C)c1ccc(-c2nc3ccccn3c2CN2CC3CN(C(=O)c4ccccc4F)CC3C2)cc1 (stereo not shown): 6.66
CC(C)c1ccc(-c2nc3ccccn3c2CN2CC3CN(C(=O)OC(C)(C)C)CC3C2)cc1 (stereo not shown): 5.60
O=C(c1cc(F)ccc1Cl)N1CC2CN(Cc3c(-c4ccc(Cl)cc4)nc4ccccn34)CC2C1 (stereo not shown): 6.00

What does the data say about its pIC50? Entry: CC(C)(C)OC(=O)N1CC2CN(Cc3c(-c4ccc(Cl)cc4)nc4ccccn34)CC2C1 (stereo not shown) 5.62

* * *

Parameter: pIC50. Scope: all listed entries.
Target: human TASK-1 (Homo sapiens (Human), UniProt O14649)
Sequence (O14649 whole entry): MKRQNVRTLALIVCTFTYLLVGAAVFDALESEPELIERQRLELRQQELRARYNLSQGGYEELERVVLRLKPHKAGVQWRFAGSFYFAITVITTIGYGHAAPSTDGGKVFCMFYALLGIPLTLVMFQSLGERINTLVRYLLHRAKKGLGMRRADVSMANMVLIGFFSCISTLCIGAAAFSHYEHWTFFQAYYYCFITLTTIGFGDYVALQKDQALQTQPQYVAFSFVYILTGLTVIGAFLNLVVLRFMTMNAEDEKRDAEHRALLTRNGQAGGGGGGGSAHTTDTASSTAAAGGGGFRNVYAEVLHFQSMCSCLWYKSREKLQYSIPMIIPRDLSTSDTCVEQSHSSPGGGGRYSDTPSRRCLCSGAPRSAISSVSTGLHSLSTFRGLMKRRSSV
Experiment: Inhibition of recombinant TASK-1 in stably transfected CHO cells (voltage-sensitive dye, 40 mM KCl depolarization)
Format: cell-based
Details: 40 mM potassium chloride
Would you please state pIC50, meaning minus log10 of the concentration in mol/L, as a bare number?

Below are worked cases with known answers.
COc1ccccc1C(=O)N1CC2CN(Cc3c(-c4ccc(Cl)cc4)nc4ccccn34)CC2C1 (stereo not drawn) [Example 18]: 5.77
O=C(Nc1ccc(Cl)c(C(F)(F)F)c1)N1CC2CN(Cc3c(-c4ccc(Br)cc4)nc4ccccn34)CC2C1 (stereo not drawn) [Example 43]: 5.77
COc1cccc(C(=O)N2CC3CN(Cc4c(-c5ccc(Cl)cc5)nc5ccccn45)CC3C2)c1 (stereo not drawn) [Example 17]: 6.14
O=C(c1ccccc1F)N1CC2CN(Cc3c(-c4ccc(Br)cc4)nc4ccccn34)CC2C1 (stereo not drawn) [Example 6]: 6.17
O=C(C1CCCC1)N1CC2CN(Cc3c(-c4ccc(Br)cc4)nc4ccccn34)CC2C1 (stereo not drawn) [Example 5]: 5.95

Here is another compound to look at.
What does the data say about its pIC50? Entry: O=C(c1cc(F)ccc1Cl)N1CC2CN(Cc3c(-c4ccc(Br)cc4)nc4ccccn34)CC2C1 (stereo not drawn) [Example 7] 6.10
